Target: T1, CD81 (UniProt P60033 1-236, limits assumed)
T1 construct: whole, on cells; also called CD81 receptor
T1 sequence (looked up): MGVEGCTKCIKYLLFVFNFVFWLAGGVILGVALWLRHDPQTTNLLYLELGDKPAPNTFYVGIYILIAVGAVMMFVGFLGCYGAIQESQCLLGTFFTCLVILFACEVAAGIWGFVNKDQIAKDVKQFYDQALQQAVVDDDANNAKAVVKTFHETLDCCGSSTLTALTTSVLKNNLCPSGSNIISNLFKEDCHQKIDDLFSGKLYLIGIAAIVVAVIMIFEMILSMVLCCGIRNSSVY
Test: cell ELISA;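 also: antibody binding to HuH7 cells expressing CD81 versus a CD81-negative HuH7 control line, bound antibody detected by secondary reagent, absorbance at 450 nm with 620 nm reference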
measure: ELISA data
Give the value as a plain number.

| binder | reported-value |
| --- | --- |
| CD81K13 HC 03-hVH_1_69 / LC CD81K13 (antibody, V domains shown, human constant region) VH: QVQLVQSGAEVKKPGSSVKVSCKASGFNFKDSYLHWVRQAPGQGLEWMGRIDTGNGNVKYAQKFQGRVTITADESTSTAYMELSSLRSEDTAVYYCAPYGYGFHSWGQGTLVTVSS VL: DIQMTQSPASLSVSVGETVTITCRASENIYRTLAWYLQKQGKSPQLLVYGATTLADGVPSRFSGSGSGTQYYLKINSLQSEDFGTYHCQHFWGTPWTFGGGTKVEIK | 0.787 |
| CD81K13 HC 02-hVH_1_3 / LC 03-hVK_1_9 (antibody, V domains shown, human constant region) VH: QVQLVQSGAEVKKPGASVKVSCKASGYTFTDSYMHWVRQAPGQRLEWMGRIDTGNGNTKYSQKFQGRVTITTDTSASTAYMELSSLRSEDTAVYYCAPYGYGFHSWGQGTLVTVSS VL: DIQLTQSPSFLSASVGDRVTITCRASENIYRTLAWYQQKPGKAPKLLIYAATTLASGVPSRFSGSGSGTEFTLTISSLQPEDFATYYCQHFWGTPWTFGQGTKVEIK | 0.13 |
| CD81K13 HC CD81K13 / LC 07-hVK_1_27 (antibody, V domains shown, human constant region) VH: EVRLHQSAAQLVQPGASVRLSCTTSGFNFKDSYLHWVKQRPAQGLEWIGRIDTGNGNVKFDPKFQDKATITTDIPSMTAYLHLSNLTSEDTAVYYCVPYGYGFHSWGDGTTLTVSS VL: DIQMTQSPSSLSASVGDRVTITCRASENIYRTLAWYQQKPGKVPKLLIYAATTLASGVPSRFSGSGSGTDFTLTISSLQPEDVGTYYCQKFWGTPWTFGQGTKVEIK | 0.199 |
| CD81K13 HC 5b-hVH_1_69-GA / LC 03-hVK_1_9 (antibody, V domains shown, human constant region) VH: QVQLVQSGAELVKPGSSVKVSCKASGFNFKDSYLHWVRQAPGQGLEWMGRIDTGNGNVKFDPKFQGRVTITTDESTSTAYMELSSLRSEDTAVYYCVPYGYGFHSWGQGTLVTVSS VL: DIQLTQSPSFLSASVGDRVTITCRASENIYRTLAWYQQKPGKAPKLLIYAATTLASGVPSRFSGSGSGTEFTLTISSLQPEDFATYYCQHFWGTPWTFGQGTKVEIK | 0.788 |
| CD81K13 HC CD81K13 / LC 01-hVK_3_15 (antibody, V domains shown, human constant region) VH: EVRLHQSAAQLVQPGASVRLSCTTSGFNFKDSYLHWVKQRPAQGLEWIGRIDTGNGNVKFDPKFQDKATITTDIPSMTAYLHLSNLTSEDTAVYYCVPYGYGFHSWGDGTTLTVSS VL: EIVMTQSPATLSVSPGERATLSCRASENIYRTLAWYQQKPGQAPRLLIYGATTRATGIPARFSGSGSGTEFTLTISSLQSEDFGVYYCQHFWGTPWTFGQGTKVEIK | 1.01 |

Next binder, ELISA data to be filled in.
# lookup: ELISA data of CD81K13 HC 07-hVH_1_3 / LC 07-hVK_1_27 (antibody, V domains shown, human constant region) VH: QVQLVQSGAEVKKPGASVKVSCKASGYTFKDSYLHWVRQAPGQGLEWMGRIDTGNGNVKFDPKFQGRVTITTDTSASTAYMELSSLRSEDTAVYYCAPYGYGFHSWGQGTLVTVSS VL: DIQMTQSPSSLSASVGDRVTITCRASENIYRTLAWYQQKPGKVPKLLIYAATTLASGVPSRFSGSGSGTDFTLTISSLQPEDVGTYYCQKFWGTPWTFGQGTKVEIK 0.073

Taken from patent US20200377590A1.
